Observed pKi, system Bcl-2-like protein 1 (Homo sapiens).
pKi: −log10 of the molar value.
quantityKind: pKi

- CC(=O)OC[C@]1(C)[C@@H](OC(C)=O)C[C@H](O[C@@H]2O[C@@H](C)[C@H](O)[C@@H](O)[C@H]2O)[C@]2(C)[C@H]3CC=C4[C@H]5C[C@](C)(C(=O)O)CC[C@]5(C)CC[C@@]4(C)[C@]3(C)CC[C@@H]12: 5.14
- C/C=C(/C)C(=O)O[C@@H]1CC(C)(C)C[C@@H]2C3=CC[C@@H]4[C@@]5(C)CCC(=O)[C@](C)(CO)[C@@H]5CC[C@@]4(C)[C@]3(C)CC[C@]21C(=O)O: 5.12
- CC(=O)OC[C@]1(C)[C@@H](OC(C)=O)C[C@H](O)[C@]2(C)[C@H]3CC=C4[C@H]5C[C@](C)(C(=O)O)CC[C@]5(C)CC[C@@]4(C)[C@]3(C)CC[C@@H]12: 4.75
- CC(C)=CC(=O)O[C@@H]1CC(C)(C)C[C@@H]2C3=CC[C@@H]4[C@@]5(C)CCC(=O)[C@](C)(CO)[C@@H]5CC[C@@]4(C)[C@]3(C)CC[C@]21C(=O)O: 5.28
